# system: T1, his-tagged B7-H3 (UniProt Q5ZPR3-2 29-245, limits assumed)
# T1 construct: also called CD276; not shown: His tag
# T1 sequence (looked up): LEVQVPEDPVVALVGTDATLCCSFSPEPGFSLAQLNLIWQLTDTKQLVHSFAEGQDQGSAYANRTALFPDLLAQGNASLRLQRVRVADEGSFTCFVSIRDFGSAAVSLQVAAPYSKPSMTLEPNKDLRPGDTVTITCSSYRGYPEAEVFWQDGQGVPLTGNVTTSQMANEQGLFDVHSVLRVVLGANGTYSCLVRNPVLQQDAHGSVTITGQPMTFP
# testDetails: SPR, Carterra LSA; binder captured by anti-human Fc, his-tagged B7-H3 injected
Catalogue of binders with associated pKd
The meaning of pKd here: minus log10 of the concentration in molar units.

Sample answers from the record:
>  <binder>
40511p1.2.G10 scFv-Fc (scFv, V domains shown, Tested as scFv-Fc supernatant) VH: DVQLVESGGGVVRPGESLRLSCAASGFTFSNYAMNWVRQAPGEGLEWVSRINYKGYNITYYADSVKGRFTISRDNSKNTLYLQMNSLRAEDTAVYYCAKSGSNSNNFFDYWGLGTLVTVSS VL: EIVLTQSPGTLSLSPGERATLSCRASQTVGSKLAWYQQKPGQAPRLLIYGASTRATDIPDRFSGSGSGTEFTLTISSLQSEDFAVYYCQQYINWPPLSFGGGTKVEIK

>  <pKd>
7.82

$$$$
>  <binder>
40511p1.1.C4 scFv-Fc (scFv, V domains shown) VH: DVQLVESGGGVVRPGESLRLSCAASGFTFSSYAMSWVRQAPGEGLEWVSRISGSGNSTDYAESVKGRFTISRDSSKNTLYLQMNSLRAEDTAVYYCAKHSTVSFFDYWGLGTLVTVSS VL: EIVLTQSPGTLSLSPGERATLSCRASQSISSRYLAWYQQKPGQAPRLLIYGASRRATGIPARFSGSGSGTEFTLTISSLQSEDFAVYYCQQYGHWPPLTFGGGTKVEIK

>  <pKd>
7.77

$$$$

Qu. Looking for the measured pKd of 40579p1.E5 scFv-Fc (scFv, V domains shown) VH: EVQLLESGGGLVQPGGSLRLSCAASGFTFSDDWMTWVRQAPGKGLEWVSAINWNGNSTHYADSVKGRFTVSRDNSKNTLYLQMNSLRAEDTAVYYCAKSRTTYYSSMDVWGQGTTVTVSS VL: EIVLTQSPGTLSLSPGERATLSCRASQTVGSYLAWYQQKPGQAPRLLIYGASSRATGIPARFSGSGSGTDFTLTISSLQSEDFAVYYCQHYYDWPPYSFGGGTKVEIK , can you help?
Ans. 8.60

Qu. Looking for the measured pKd of 40511p1.1.D8 scFv-Fc (scFv, V domains shown) VH: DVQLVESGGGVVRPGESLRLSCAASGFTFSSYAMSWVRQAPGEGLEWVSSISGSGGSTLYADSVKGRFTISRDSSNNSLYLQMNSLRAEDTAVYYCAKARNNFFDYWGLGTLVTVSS VL: EIVLTQSPGTLTLSPGERATLSCRASRSILTSLAWYQQRPGQAPRLLIYGANSRATGIPDRFSGSGSGTEFTLTISSLQSEDFAVYYCQQYYDWLTITFGGGTKVEIK , can you help?
Ans. 7.14

Qu. Looking for the measured pKd of 40633p1.2.A8 scFv-Fc (scFv, V domains shown) VH: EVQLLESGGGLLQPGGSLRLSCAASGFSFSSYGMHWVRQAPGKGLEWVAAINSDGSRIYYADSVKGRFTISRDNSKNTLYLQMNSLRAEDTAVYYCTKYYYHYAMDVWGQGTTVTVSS VL: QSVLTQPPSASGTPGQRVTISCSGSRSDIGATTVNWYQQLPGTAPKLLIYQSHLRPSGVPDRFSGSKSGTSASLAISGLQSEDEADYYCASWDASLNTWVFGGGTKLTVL , can you help?
Ans. 7.90

Qu. Looking for the measured pKd of 40633p1.2.G9 scFv-Fc (scFv, V domains shown) VH: EVQLLESGGGLLQPGGSLRLSCAASGFSFSSYGMHWVRQAPGKGLEWVAAINSDGSRIYYADSVEGRFTISRDNSKNTLYLQMNSLRAEDTAVYYCTKYYYHYAMDVWGQGTTVTVSS VL: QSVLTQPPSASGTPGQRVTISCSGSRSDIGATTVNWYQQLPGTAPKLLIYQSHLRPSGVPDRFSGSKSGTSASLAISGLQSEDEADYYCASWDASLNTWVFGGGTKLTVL , can you help?
Ans. 7.97

Reference source for all entries: patent US20260008852A1
